ASSAY NAME: in vivo
Design: species or system SCID mice
MEASUREMENT PARAMETERS: SCID, mouse, iv, 10 pmol peptide, total radioactivity, %ID/g tissue, Heart
EXPERIMENTAL ENDPOINT: tissue uptake at 4 h

Entry CSCC[C@H](NC(=O)[C@H](Cc1c[nH]c2ccccc12)NC(=O)CNC(=O)[C@H](Cc1ccc(O)cc1)NC(=O)[C@H](C)NC(=O)[C@@H](CCC(=O)O)NC(=O)[C@@H](CCC(=O)O)NC(=O)[C@@H](CCC(=O)O)NC(=O)[C@@H](CCC(=O)O)NC(=O)[C@@H](CCC(=O)O)NC(=O)[C@@H](CCC(=O)O)NC(=O)CN1CCN(CC(=O)O)CCN(CC(=O)O)CCN(CC(=O)O)CC1)C(=O)N[C@@H](CC(=O)O)C(=O)N[C@@H](Cc1ccccc1)C(N)=O [^111In-CP04, metal not drawn] — recorded tissue uptake at 4 h = 0.02 %ID/g

----------
ASSAY NAME: in vivo
Set-up: species or system SCID mice
MEASUREMENT PARAMETERS: SCID, mouse, iv, 10 pmol peptide, total radioactivity, %ID/g tissue, Intestines
Procedure: The human epidermoid A431 cell line transfected to stably express the CCK2R (A431-CCK2R(+)) or devoid of CCK2R expression (A431-CCK2R(−)) used for tumour induction in this work was a gift from Prof. O. Boerman (Department of Nuclear Medicine, Radboud University Nijmegen Medical Centre, Nijmegen, The Netherlands) and Prof. L. Aloj (Istituto di Biostrutture e Bioimmagini, Consiglio Nazionale delle Ricerche, Naples, Italy) and cells were cultured as previously reported ([Aloj et al., 2004]). […]
EXPERIMENTAL ENDPOINT: tissue uptake at 1 h
# do not omit the unit; it follows the number

Entry CSCC[C@H](NC(=O)[C@H](Cc1c[nH]c2ccccc12)NC(=O)CNC(=O)[C@H](Cc1ccc(O)cc1)NC(=O)[C@H](C)NC(=O)[C@@H](CCC(=O)O)NC(=O)[C@@H](CCC(=O)O)NC(=O)[C@@H](CCC(=O)O)NC(=O)[C@@H](CCC(=O)O)NC(=O)[C@@H](CCC(=O)O)NC(=O)[C@@H](CCC(=O)O)NC(=O)CN1CCN(CC(=O)O)CCN(CC(=O)O)CCN(CC(=O)O)CC1)C(=O)N[C@@H](CC(=O)O)C(=O)N[C@@H](Cc1ccccc1)C(N)=O [^111In-CP04, metal not drawn] — recorded tissue uptake at 1 h = 0.36 %ID/g

----------
ASSAY NAME: in vivo
Design: species or system SCID mice
MEASUREMENT PARAMETERS: SCID, mouse, iv, 10 pmol peptide, total radioactivity, %ID/g tissue, Lung
EXPERIMENTAL ENDPOINT: tissue uptake at 4 h (%ID/g)
# output: bare number, implied unit %ID/g

Entry CSCC[C@H](NC(=O)[C@H](Cc1c[nH]c2ccccc12)NC(=O)CNC(=O)[C@H](Cc1ccc(O)cc1)NC(=O)[C@H](C)NC(=O)[C@@H](CCC(=O)O)NC(=O)[C@@H](CCC(=O)O)NC(=O)[C@@H](CCC(=O)O)NC(=O)[C@@H](CCC(=O)O)NC(=O)[C@@H](CCC(=O)O)NC(=O)[C@@H](CCC(=O)O)NC(=O)CN1CCN(CC(=O)O)CCN(CC(=O)O)CCN(CC(=O)O)CC1)C(=O)N[C@@H](CC(=O)O)C(=O)N[C@@H](Cc1ccccc1)C(N)=O [^111In-CP04, metal not drawn] — recorded tissue uptake at 4 h = 0.04
